biological target: recombinant human soluble CD4 (human); test: ELISA; competition: increasing HD5 against anti-CD4 mAb (Leu3a; OKT4) for binding to plastic-immobilised sCD4 (coated at 5 µg/mL); HD5 added before the mAb and kept in the wells
recorded_metric: IC50 (nM)
Field: numeric (nM). Do not append units.

Which IC50 is listed for ATCYCRTGRCATRESLSGVCEISGRLYRLCCR [human α-defensin-5] ?
1800

Data credit: paper PMC3459904
